- Target Or Test System: Sut1 (UniProt P53032)
- Sequence: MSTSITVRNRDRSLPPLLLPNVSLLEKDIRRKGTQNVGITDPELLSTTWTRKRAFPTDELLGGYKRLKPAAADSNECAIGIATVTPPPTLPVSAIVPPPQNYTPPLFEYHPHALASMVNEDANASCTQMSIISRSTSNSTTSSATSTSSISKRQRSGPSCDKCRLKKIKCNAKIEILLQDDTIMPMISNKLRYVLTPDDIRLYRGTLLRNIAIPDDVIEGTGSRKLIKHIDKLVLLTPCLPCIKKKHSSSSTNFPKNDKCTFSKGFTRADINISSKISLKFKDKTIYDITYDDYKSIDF
- Assay Comment: PBM E-score (8-mer binding enrichment) (E-score (-0.5 to 0.5)); higher = stronger / more preferred TF binding
- Settings: protein concentration: 200 nM; construct: GST-full length
In all, about 33,000 sequences were measured (“E-score (-0.5 to 0.5)”: median about -0.017, highest 2% from about 0.3 on). What follows is part of a selection rich in the highest values, with near analogues and random picks from the rest.
Consider the following sequences; for each one, report its PBM E-score.
Write no unit; give the number alone.

Report PBM E-score under test system Sut1 (UniProt P53032) for GTCCGAGA .
0.428

Supply PBM E-score measured with Sut1 (UniProt P53032) for CCCCGAGC .
0.163

System Sut1 (UniProt P53032). Read-out PBM E-score. Item AAACTCCT . Report value.
0.016

Please tell me the measured PBM E-score for CTATTTAA ; system: Sut1 (UniProt P53032).
0.188

State recorded PBM E-score with Sut1 (UniProt P53032), entry CTCAGGAG , no comment.
-0.179

Recall the reported PBM E-score of ACCTTGCC when tested on Sut1 (UniProt P53032).
-0.0123

Provide PBM E-score, recorded with Sut1 (UniProt P53032), of CTCTCGCC
-0.182

Return reported PBM E-score for target or system Sut1 (UniProt P53032), item AGCTCCTC .
-0.098

Fetch value of PBM E-score on Sut1 (UniProt P53032) for GATTAAAC .
0.114

Under Sut1 (UniProt P53032): report PBM E-score of CCAGTAGA .
-0.112

System Sut1 (UniProt P53032). Read-out PBM E-score. Item GATACGGC . Report value.
-0.104

Give reported PBM E-score for GCACCTTA (Sut1 (UniProt P53032))
-0.00495

Write down measured PBM E-score (Sut1 (UniProt P53032)) for this sequence. AATTAAAG
0.198

Please report PBM E-score with Sut1 (UniProt P53032) for item CCGGAAAG .
0.276

Provide PBM E-score, recorded with Sut1 (UniProt P53032), of AGATGAGC
-0.0376

# lookup: Sut1 (UniProt P53032) PBM E-score, key = ACTATATC
0.209

# lookup: Sut1 (UniProt P53032) PBM E-score, key = AGGAGCGA
-0.00713

Answer with PBM E-score of ACGGAAAG measured for Sut1 (UniProt P53032).
0.25

Provide the reported PBM E-score (system: Sut1 (UniProt P53032)) for TATACGGA
0.312

Lab note: Sut1 (UniProt P53032) assay, enter PBM E-score for GACCGAAC here
0.0271

Give reported PBM E-score for AGATGGTA (Sut1 (UniProt P53032))
0.0768

Provide Sut1 (UniProt P53032) PBM E-score reading for CACCGAGA .
-0.0582

// fetch PBM E-score for TCCGGAAA ; system: Sut1 (UniProt P53032)
0.411

Enter PBM E-score (test system Sut1 (UniProt P53032)) for CCATTCGG
0.00649

Supply PBM E-score measured with Sut1 (UniProt P53032) for AAGTCTAC .
0.004

Enter PBM E-score (test system Sut1 (UniProt P53032)) for TCAGGACA
-0.0448

Fill in: PBM E-score on Sut1 (UniProt P53032), entry GGGTTAAC
0.0764

// output PBM E-score; input CTCCGAAC ; system Sut1 (UniProt P53032)
0.468

Write down measured PBM E-score (Sut1 (UniProt P53032)) for this sequence. CCCGGAAA
0.234

Recall the reported PBM E-score of GTCCGGAA when tested on Sut1 (UniProt P53032).
0.402

State the measured PBM E-score (Sut1 (UniProt P53032)) of CAGCCTGC
-0.224

Would you please give the reported PBM E-score of CATACGGA with Sut1 (UniProt P53032)?
0.303

Give PBM E-score only, for TATACGAA , using Sut1 (UniProt P53032) data.
0.194

GET PBM E-score | system: Sut1 (UniProt P53032) | item: ATGCGGAG
0.259

Answer with PBM E-score of GATTTGAA measured for Sut1 (UniProt P53032).
0.142

# assay system Sut1 (UniProt P53032): give PBM E-score of ATCGGATA
0.288

Jot down PBM E-score (Sut1 (UniProt P53032)) of GCTATATA .
0.118

FYI, the data here is from the supplement of paper PMC3334620.
